EXPERIMENT DESCRIPTION: yeast display, Sf9 membrane polyspecificity reagent, FACS + sequencing; frameworks hold sequencing errors
MEASUREMENT LABEL: polyreactivity (PSR sort gate)

QUERY SEQUENCE | polyreactivity (PSR sort gate)
QVQLVESGGGLVQAGGSLRLSCAASRITSYPYAMGWSRQGPGKERELVAAISKRGGGTYYADSVKGPFTISRDNAMNTVYLQLNSLKPVDTAVYYCAKSWGPTTYKIVPAYGYWGQGTQVTVSS | high polyreactivity
QVQLVESGGGLVQAGGSLRLSCAASGRIVWYAMGWYRQAPGKERELVAAINWSGGSTYYADSVKGRFTISRDNAKNTVYLQMNSLKPEDTAVYYCAADVRNYWLEYEYWGQGTQVTVSS | low polyreactivity
QVQLVESGGGLVQAGGSLRLTCSASGSTFYYYAMGWYRQAPGKERELVAAITISGGSTYYADSVKGRFTISRDKAKNTVYLQLNSLKPEDTAVYYCNVDDRETRDDYWGQGTQVTVSS | low polyreactivity
QVQLVESGGGLVQAGGSLRLSCAASGRTFYYNAMGWYRQAPGKEREFVAAIRYSGGITYYADSVKGRFTISRDNAKNTVYLQMNSQKPEDTAVYYCAADYVSRRYYYWGQGTQVTVSS | high polyreactivity
QVQLVESGGGLVQAGGSLRLSCAASGSIFRNYAMGWYRQAPGKERELVAVITYSGGNTYYADSVKGRFTISRDIAKNTVYLQMNSLKPEDSAVYYCAADYLVVAYGYRYLRHYYWGQGTQVTVSS | high polyreactivity

Query: Return reported polyreactivity (PSR sort gate). Input sequence: QVQLQESDGGLVQAGGSLRLSCAASGSISPQYYRGWYRQAPGKEREFVAISKGTSTYYADSVKGRLTISRVNAKNTVYLQMNSLKPEDTAVYCCAAGRWLQKVHAYWDQGTQVTVSS
Reply: low polyreactivity

Query: Return reported polyreactivity (PSR sort gate). Input sequence: QVQLVESGGGLVQAGGSLRLSCAASGRTFYYYAMGWYRQAPGKERELVAAISWGGGRTYYADSVKGRFTISRDNAKNTVYLQMNSLKPEDTAVYYCNAVRTTPSGSLPLAYDYWGQGTQVTVSS
Reply: low polyreactivity
